test: protein stability index of a GFP-peptide fusion (GPS, HEK-293T) (PSI 1-6); higher = more stable; conditions: treatment: DMSO; c terminus: a fixed tail appended;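 also: 24-mer peptide tiles fused after GFP, lentivirally expressed, FACS-sorted into six equal bins by GFP/DsRed ratio, decoded by Illumina sequencing, PSI is the read-weighted mean bin number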
Form field: protein stability index (one value per entry).

{"columns": ["ITEM SEQUENCE", "protein stability index"],
 "data": [
  ["LLSDGSNTLSVSYKKGRMMKDISN [SLC6A17]", 3.03],
  ["EDDALSDKHGCPAYVSPEILNTTG [TRIB1]", 4.97],
  ["SFCLEDTECEGDIQKNYECANFGD [LOXL2]", 5.14],
  ["DEMQEVPNRVLAPEQSLKKTKTSE [SPANXN3]", 5.57],
  ["VILSEIKEAVAALPPDVTTQSVMG [TCF25]", 2.77],
  ["LEPEAAEEALENGPKESLPVIAAP [ACBD3]", 5.67],
  ["LQKVLLMLVDGIDPNFKMEHQNKR [EHMT1]", 2.62],
  ["LTPLELLLRQLGRDAGATPSAAGA [ANKRD9]", 2.42],
  ["RLASYLDKVRALEEANADLEVKIR [KRT16]", 2.39],
  ["INLPVEEFNELLSKYQLSEAQLSL [NFE2L1]", 2.47]
]}

For NVYPEMRVYNNTLTYGEVRNSKAS [GALNT9] the sequence record lists protein stability index as 3.94

Query LSVGQYNCPGQYTFSMPSDSHVSS [CD69] yields protein stability index of 3.05

response.value for IMTQLRQEGWIHHLARHAVACFLT [CRY1] (field: protein stability index) = 3.02

Entry SLCKALAQKLTIRLSSRYRYGQLI [TRIP13] — recorded protein stability index = 3.01

According to the records, this sequence YLHTVSDCDTSSICEDSFDGRSLS [SCARA5] displays protein stability index of 4.37

----------
assay: protein stability index of a GFP-peptide fusion (GPS, HEK-293T) (PSI 1-6); higher = more stable; details: treatment: MLN4924 1 uM, 8 h; c terminus: a fixed tail appended
protein stability index listing for selected sequences.

See these solved cases before continuing.
{"columns": ["ITEM SEQUENCE", "EXPERIMENTAL VALUE"],
 "data": [
  ["DSRIRFGFLTVTNLGVENMNHYKK [PTPN9]", 2.7],
  ["NMDPKAAEEEEEEEEEVDLACTPT [CCND1]", 5.64],
  ["KSHVYMAWNIPMSNPGVDFGDVSE [GALNT9]", 2.79],
  ["RKRIHDSRVAGFNPALQLILTRTD [TOR1AIP2]", 4.18],
  ["TNLTWDQVITLDQVLDEVIPIHGK [TENT5D]", 2.61],
  ["VLEAKMTMLTVIEQPVPPTPATPE [EMID1]", 3.89],
  ["QLLWREFFYTAATNNPRFDKMEGN [CRY1]", 2],
  ["ISHQGDYAVLAAEPELQVGIDIMK [AASDHPPT]", 3.52],
  ["EHPEALSCLLLQLRREKPSEEMVK [INTS3]", 3.57],
  ["MQRPYDSRTCIGSSHSRGPLSWAP", 2.94]
]}

Just so you know, measured protein stability index for LTLSAGDLGGSIYANLALSGLIEI [SLC22A15] came out at 3.43

Please fill in: protein stability index reported for GNFQGIRFHYDRNPGTDAVAQTSL [FATE1] = 3.42

For QLQPTFTPMRVALAGTFHYYSCER [NSDHL] the sequence record lists protein stability index as 2.26

For record SLLQKVSPVAHKHLSRQKIDPLLY [TBC1D10A] the listed protein stability index is 2.24

----------
Here, each record is paired with measured protein stability index data.
experiment: protein stability index of a GFP-peptide fusion (GPS, HEK-293T) (PSI 1-6); higher = more stable; settings: treatment: MLN4924 1 uM, 8 h; c terminus: a fixed tail appended
Number, no unit, nothing else.

Memo: MEVQHFRTIYHMFIAGLCVFIIST [SOAT2] , reported protein stability index: 3.18

Entry MATPDAGLPGAEGVEPAPWAQLEA [FANCE] , protein stability index reported as 4.96

Just so you know, measured protein stability index for MTEPWLALGTSWTLPLQDRELGPE [CABP4] came out at 4.16

sequence HKESKMTIFEKENFIGRQWEISDD [CRYBA1] , protein stability index observed: 4.07

The sequence listed as RLWSLSYTKLPSSLQSTGKCLLYC [SLC25A39] shows protein stability index equal to 2.73

// protein stability index value for YVLNLLYETKKHLVQLPNINRVST [PPEF2] : 2.59

Reported protein stability index ( LHCYRDRPHEVLLCSDLVKAYQRC [CHCHD6] ) = 2.19

----------
The entries below come with measured protein stability index values attached.
experiment: protein stability index of a GFP-peptide fusion (GPS, HEK-293T) (PSI 1-6); higher = more stable; conditions: treatment: DMSO; c terminus: native
Answer using only a numeral; do not append any unit.

These recorded examples may help you get a feel for the data.
{"columns": ["ITEM SEQUENCE", "protein stability index"],
 "data": [
  ["NLPSGGKGFKLRRQPSEPKRSCC [RAB22A]", 3.89],
  ["DQTKSIVEKIQAKLPGIAKKKAE [RTN3]", 5.46],
  ["LKRSHRESQFLMAKKNFNTNLLE [HESX1]", 3.36],
  ["GEVEEEADSCFGDDEDDSGTEES [CDC34]", 5.25],
  ["GFYFEVCGMMVESVNAKTLMSRI [PCDHGA10]", 2.81],
  ["HRRDGKWQIVHFHRSGAPSVLPH [CAMK2A]", 3.2]
]}

Briefly, protein stability index measured for VPDGLGLDEAREEEGDREVVLYG [TRIB3] : 4.96

Looking up FARYPNGVVVHYFCSKEVNPADT [VPS39] , I found its protein stability index recorded as 2.4

GET /value?item= IPAVSISYVVYENLKITLGVQSR [SLC25A25] &field=protein stability index returns 3.19

So, MLEDGPHNANRGQRLLAFSRGRA [CCDC70] ? Its protein stability index was 2.99

// TDDRIVVPQRGRSTRVPVASVLI [SPNS1] : protein stability index value = 2.64

----------
Recorded protein stability index values for a group of sequences are listed next.
test: protein stability index of a GFP-peptide fusion (GPS, HEK-293T) (PSI 1-6); higher = more stable; settings: treatment: DMSO; c terminus: a fixed tail appended
Answer with a number only.

Field: example entries. Status: answers known.
{"columns": ["ITEM SEQUENCE", "protein stability index"],
 "data": [
  ["MGESSEDIDQMFSTLLGEMDLLTQ [APBB1IP]", 4.25],
  ["RLALEKVPKVGQRFNRIGLPPKVG [PI4K2A]", 3.23],
  ["RSKIYLRFLDYEMQNSNECKRNFV [NETO1]", 2.1]
]}

Please find the next sequence below.
The measured protein stability index associated with EANSSNSQKNEKALTNIQNCMAEK [C8orf76] reads 4.96

----------
assay: protein stability index of a GFP-peptide fusion (GPS, HEK-293T) (PSI 1-6); higher = more stable; conditions: treatment: DMSO; c terminus: a fixed tail appended
METRIC: protein stability index
Lab note: jot down the number only; don't add units.

{"columns": ["ITEM SEQUENCE", "protein stability index"],
 "data": [
  ["PKARKQGVSPADMYRWKLSSHEPC [ADAMTSL2]", 2.94]
]}

Record summary for KLEERFMTLAANHELMLRFKDEYK [CCDC89] : reported protein stability index = 2.99

----------
assay: protein stability index of a GFP-peptide fusion (GPS, HEK-293T) (PSI 1-6); higher = more stable; conditions: treatment: DMSO; c terminus: a fixed tail appended
Each entry below lists one item and its recorded protein stability index value.
Write the value as a bare number.

Study these solved cases before continuing.
{"columns": ["ITEM SEQUENCE", "protein stability index"],
 "data": [
  ["RNLQDLARIYIRRTLRNFINDEMQ [PCMTD1]", 2.07],
  ["PHGQYGGHHQGMPGYLPGAMPPYG [ZNF207]", 2.93]
]}

# protein stability index (sequence: IVHVEKEEVPEGMEEAAVASVVLP [BCL2L13] ) is 5.11

Short answer for RPVAPRRPRDAVGQRGAQGAGRRR [SMAD6] : protein stability index was 5.27

Form field protein stability index, entry ANDGDYWRLLNPGEYVVTAKAEGF [CPXM2] : 2.81

----------
Listing of recorded protein stability index by entry.
test: protein stability index of a GFP-peptide fusion (GPS, HEK-293T) (PSI 1-6); higher = more stable; details: treatment: DMSO; c terminus: a fixed tail appended
Write the value as a bare number.

The examples below pair each entry with its known result.
{"columns": ["ITEM SEQUENCE", "EXPERIMENTAL VALUE"],
 "data": [
  ["PNKGLLSDSMTDVPVDTGVAARTP [TPD52L2]", 4.9],
  ["CEYETRLPGNHSTSQEIFRQRFRH [ZNF232]", 3.48],
  ["YSLASGAGGGGSKGNSLKRSKSIR [RAB40C]", 4.37],
  ["DDAVAGDFALINKLDIQCDLKTLS [ATE1]", 4.18],
  ["RRHCQACRLKRCVDIGMMKEFILT [VDR]", 2.77]
]}

The sequence listed as KVFLHERELWLKFHEVGTEMIITK [TBX5] has a reported protein stability index of 2.12

// field: protein stability index; key: CLMGLAETPGCATLLPASLFVNSH [DCAF4] ; value = 2.35

Entry RLEPLEHRRRTICGTPNYLSPEVL [PLK2] ; protein stability index = 3.55

Per the record, LMCGGIAFWSLVTLGSSFIPGEHF [SPNS1] has protein stability index of 3.21

Taken from the supplement of paper PMC10567573.
